Molecular target: preformed Aβ42 fibrils (Homo sapiens, UniProt P05067)
Construct: The Aβ42 peptide was produced by Bachem AG; purchased Bachem AG
Sequence (P05067 672-713 limits assumed, species assumed): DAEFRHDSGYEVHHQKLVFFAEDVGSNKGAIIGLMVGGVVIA
Experiment: Destabilization assay (ThT fluorescence): destabilization of preformed Aβ42 fibrils
Type: biochemical
Conditions: fibrils preformed from 25 μM Aβ42 (24 h, 37 °C); further 24 h at 37 °C with compound; ThT fluorescence
Attribute Measured: EC50 (µM)

> print(dat)
                                   compound  recorded.result
1  Oc1cc(O)c2c(c1)O[C@H](c1ccc(O)c(O)c1)[C@@H](O)C2 [C, (+)-catechin]             5.27
2  Oc1cc(O)c2c(c1)O[C@H](c1cc(O)c(O)c(O)c1)[C@H](O)C2 [EGC, (−)-epigallocatechin]             7.76
3  Oc1cc(O)c2c(c1)O[C@H](c1ccc(O)c(O)c1)[C@H](O)C2 [EC, (−)-epicatechin]             5.99
4  Oc1cc(O)c2c(c1)O[C@H](c1cc(O)c(O)c(O)c1)[C@@H](O)C2 [GC, (−)-gallocatechin]             15.7
5  Oc1cc(O)c2c(c1)O[C@H](c1ccc(O)c(O)c1)[C@H](O)[C@H]2c1c(O)cc(O)c2c1O[C@H](c1ccc(O)c(O)c1)[C@@H](O)C2             3.51
6  Oc1cc(O)c2c(c1)O[C@H](c1ccc(O)c(O)c1)[C@@H](O)[C@@H]2c1c(O)cc(O)c2c1O[C@H](c1ccc(O)c(O)c1)[C@@H](O)C2             5.12
